Recorded KD (Relative value) for the following binders
Target: T1, human GPVI extracellular region-human Fc fusion protein (hGPVI-hFc) (human)
T1 construct: Expressed in COS-1, purified on Protein A; also called GPVI-HHH-hFc; hGPVIHHH-hFc
T1 sequence (chain, as listed by the source limits assumed): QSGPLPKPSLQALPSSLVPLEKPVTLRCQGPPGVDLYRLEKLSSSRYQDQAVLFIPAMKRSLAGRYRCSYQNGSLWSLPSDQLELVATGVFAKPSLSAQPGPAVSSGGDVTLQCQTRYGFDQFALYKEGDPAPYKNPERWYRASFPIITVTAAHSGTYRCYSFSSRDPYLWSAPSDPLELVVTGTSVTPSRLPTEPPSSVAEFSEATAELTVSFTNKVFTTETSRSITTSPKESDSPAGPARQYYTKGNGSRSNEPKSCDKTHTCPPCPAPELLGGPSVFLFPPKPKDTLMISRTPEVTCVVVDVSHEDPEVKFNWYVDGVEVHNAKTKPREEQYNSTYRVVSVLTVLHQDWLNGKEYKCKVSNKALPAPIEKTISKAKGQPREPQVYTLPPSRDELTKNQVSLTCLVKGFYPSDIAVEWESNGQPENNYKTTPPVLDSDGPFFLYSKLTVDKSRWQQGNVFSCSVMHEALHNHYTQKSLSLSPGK
Assay Overview: SPR BIACORE 3000 as in Example 5

• F1246-1-1 (antibody, V domains shown, mouse hybridoma monoclonal antibody) VH: EVQLVESGGDLVKPGGSLKLSCAASGFTFSSYGMSWVRQTPDKRLEWVATISNGGTYTYYPDSVKGRFTISRDNAKNTLYLQMSSLKSDDTAMYYCGRLRDYYAMDYWGQGTSVTVSS VL: DIVLTQSPASLAVSLGQRATISCRASESVDSYGNSFMHWYQQKPGQPPKLLIYRASNLESGIPARFSGSGSRTDFTLTINPVEADDVATYYCQQSNEDPWTFGGGTKLEIKR = 0.884 relative to F1232-37-2 = 1

# next binder below
Using the record for F1249-24-1 (antibody, V domains shown, mouse hybridoma monoclonal antibody) VH: QVQLQQSGAELVRPGVSVKISCKGSGYTFTDYAMHWVKQSHAKSLEWIGVISTYYGDTSYNQKFKGKATMTVDKSSSTAYMELARLTSEDSAIYYCARAEDYDPWFAYWGQGTLVTVSA VL: DIVLTQSPASLAVSLGQRATISCRASESVDSYGNSFMHWYQQKPGQPPKLLIYRASNLESGIPARFSGSGSRTDFTLTINPVEADDVATYYCQQSDEDPLTFGAGTKLELKR , report its KD (Relative value). 0.00821 relative to F1232-37-2 = 1

Numbers sourced from patent US20110217318A1.
